Assay system: His-tagged T2 mechanosensitive channel from Thermoplasma volcanium (Thermoplasma volcanium)
Protocol text: far-Western, overlay or dot blot; channel samples run on SDS-PAGE and blotted on nitrocellulose (His-tagged T1 0.1 µg, His-tagged T2 0.1 µg, tag free T2 0.01 and 0.1 µg); strips incubated with nanobody at 1 µg/ml for 1 hour, bound His-tagged nanobody detected with HisProbe-HRP; intensity ratio of lane 2 of the sample strip to the reference strip

[
  {
    "Binder": "nanobody 12 (VHH, pHEN6 vector; also called Nb 12; CA-number 3394; source: E. coli WK6 periplasm, purified (IMAC, gel filtration); not shown: His-tag, C-terminal, kept) VHH: QVQLQESGGGLVQPGGSLRLSCVASGSIFSINAMGWYRQAPGKQRDLVAVITSRGSTNYADSVKGRFTISRDNAKNTTYLQMNSLKPEDTAVYYCNADLAAYYSGTYYDTLLYWGQGTQVTVSS",
    "ratio of WB intensities": 7.15
  },
  {
    "Binder": "nanobody 6 (VHH, pHEN6 vector; also called Nb 6; CA-number 3387; source: E. coli WK6 periplasm, purified (IMAC, gel filtration); not shown: His-tag, C-terminal, kept) VHH: QVQLQESGGGLVQPGGSLRLSCAASGSIFSINAMGWYRQAPGKQRELVAVLTRRGSTNYADSMKGRFTISRDNTKNTVYLQMNSLKPEDTAVYYCNADLEGRPLYWGQGTQVTVSS",
    "ratio of WB intensities": 4.7
  },
  {
    "Binder": "nanobody 4 (VHH, pHEN6 vector; also called Nb 4; CA-number 3383; source: E. coli WK6 periplasm, purified (IMAC, gel filtration); not shown: His-tag, C-terminal, kept) VHH: QVQLQESGGGLVQPGGSLRLSCAASGSIFSMNSMDWYRQAPGKQRELVATITSGGSTNYADSVKGRFTISRDNAWNTVTLQMNSLKPEDTAVYYCHAVLSTRGGYWGQGTQVTVSS",
    "ratio of WB intensities": 3.87
  },
  {
    "Binder": "nanobody 10 (VHH, pHEN6 vector; also called Nb 10; CA-number 3391; source: E. coli WK6 periplasm, purified (IMAC, gel filtration); not shown: His-tag, C-terminal, kept) VHH: QVQLQESGGGLVQPGGSLRLSCAASGSIFSINSMDWYRQAPGKQRELVATITSGGSTNYADSVKGRFTISRDNAKNTVYLQMNSLKPEDTAVYYCHAVVATRGGYWGQGTQVTVSS",
    "ratio of WB intensities": 9.8
  },
  {
    "Binder": "nanobody 3 (VHH, pHEN6 vector; also called Nb 3; CA-number 3382; source: E. coli WK6 periplasm, purified (IMAC, gel filtration); not shown: His-tag, C-terminal, kept) VHH: QVQLQESGGGLVQPGGSLRLSCAASGFTLDYYAIGWFRQTPGKEREGVSCISSSDDSTYYADSVKGRFTISRDNAKNTVYLQMNSLKPEDTAVYYCATGWACTLVAGTNGMDYWGKGTQVTVSS",
    "ratio of WB intensities": 4.59
  },
  {
    "Binder": "nanobody 18 (VHH, pHEN6 vector; also called Nb 18; CA-number 3401; source: E. coli WK6 periplasm, purified (IMAC, gel filtration); not shown: His-tag, C-terminal, kept) VHH: QVQLQESGGGLVQPGGSLRLSCAASGSIFSINAMGWYRQAPGKQRELVAFITKVGNTNYADSVKDRFAISRDNAKNTVYLQMNSLKPEDTAVYYCYADIENSSNYKQDFYWGQGTQVTVSS",
    "ratio of WB intensities": 15.7
  },
  {
    "Binder": "nanobody 11 (VHH, pHEN6 vector; also called Nb 11; CA-number 3393; source: E. coli WK6 periplasm, purified (IMAC, gel filtration); not shown: His-tag, C-terminal, kept) VHH: QVQLQESGGGLVQAGGSLRLSCAASGGPFTFGAMGWYRQAPGKQRELVAIITKKGSTNYADSVKGRFTVSRDNAKNTVYLQMNSLKPEDTAVYYCYHQTAPVADVTWGQGTQVTVSS",
    "ratio of WB intensities": 14.2
  },
  {
    "Binder": "nanobody 19 (VHH, pHEN6 vector; also called Nb 19; CA-number 3402; source: E. coli WK6 periplasm, purified (IMAC, gel filtration); not shown: His-tag, C-terminal, kept) VHH: QVQLQESGGGLVQPGGSLRLSCAASGSISRLNHMGWYRQPPGKQRELVAVITSGGSTDYADSVKGRFTISSGNAKNTVYLQMNSLKTEDTAVYYCNAYSEFIRPYTLWGQGTQVTVSS",
    "ratio of WB intensities": 17.5
  }
]
